tested on: HBV surface antigen (HBsAg); test: HBV in vitro test: HBV surface antigen in HepG2.2.15 culture supernatant by ELISA; assay type: cell-based, Hepatitis B Virus (HBV); details: Hepatitis B virus, HepG2.2.15, read-out: HBsAg experimental results EC50
Listed next: entries and their corresponding pEC50.
pEC50 (log units): -log10 of the concentration in mol/L.

COc1cc2c(cc1Cl)-c1cc(=O)c(C(=O)O)cn1C(c1ccccc1)O2 (stereo not shown) yielded pEC50 of 7.56

Per the record, COCCCOc1cc2c(cc1Cl)-c1cc(=O)c(C(=O)O)cn1C(c1ccccc1F)O2 (stereo not shown) has pEC50 of 7.68

The recorded pEC50 for COCCCOc1cc2c(cc1Cl)-c1cc(=O)c(C(=O)O)cn1C(c1c(F)cccc1Cl)O2 (stereo not shown) is 7.41

Item: O=C(O)c1cn2c(cc1=O)-c1cc(Cl)c(OCCO)cc1OC2c1ccccc1 (stereo not shown) | pEC50: 6.52
